system.under.test: human IL-6 (human, UniProt P05231 30-212)
Sequence (P05231 30-212 limits assumed): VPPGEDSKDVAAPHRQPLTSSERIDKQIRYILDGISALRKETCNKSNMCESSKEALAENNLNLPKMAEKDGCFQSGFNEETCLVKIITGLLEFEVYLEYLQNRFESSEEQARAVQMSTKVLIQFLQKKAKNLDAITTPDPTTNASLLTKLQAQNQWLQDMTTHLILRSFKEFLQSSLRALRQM
assay.remarks: SPR (Biacore), supernatant antibody on Protein A chip, IL-6 flowed, 37 C
Exercise: for every item that follows, state its recorded kon.
# include the unit after the value

Here are 2 binders. What values of kon were reported for them?
1. anti-IL-6 antibody, heavy chain I51D, G66D / light chain M32L, M50D, N52S, M88Q (antibody, human IgG1, V domains shown, Human IgG1) VH: EVQLVESGGGLVQPGGSLRLSCAASGFTFSPFAMSWVRQAPGKGLEWVAKDSPGGSWTYYSDTVTDRFTFSLDTSKSTAYLQMNSLRAEDTAVYYCARQLWGYYALDIWGQGTLVTVSS VL: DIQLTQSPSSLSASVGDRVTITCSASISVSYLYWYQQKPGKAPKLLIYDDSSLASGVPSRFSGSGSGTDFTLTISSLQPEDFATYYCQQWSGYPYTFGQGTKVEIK
2. anti-IL-6 antibody, heavy chain I51A, G66D / light chain M32L, M50D, N52S, M88Q (antibody, human IgG1, V domains shown, Human IgG1) VH: EVQLVESGGGLVQPGGSLRLSCAASGFTFSPFAMSWVRQAPGKGLEWVAKASPGGSWTYYSDTVTDRFTFSLDTSKSTAYLQMNSLRAEDTAVYYCARQLWGYYALDIWGQGTLVTVSS VL: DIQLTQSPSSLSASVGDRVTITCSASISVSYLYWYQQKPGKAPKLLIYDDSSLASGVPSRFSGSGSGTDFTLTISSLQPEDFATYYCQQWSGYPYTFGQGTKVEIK

["834000 M⁻¹ s⁻¹", "1.61e+06 M⁻¹ s⁻¹"]

State recorded kon for all listed binders.
1. anti-IL-6 antibody, heavy chain I51F, G66D / light chain M32L, M50D, N52S, M88Q (antibody, human IgG1, V domains shown, Human IgG1) VH: EVQLVESGGGLVQPGGSLRLSCAASGFTFSPFAMSWVRQAPGKGLEWVAKFSPGGSWTYYSDTVTDRFTFSLDTSKSTAYLQMNSLRAEDTAVYYCARQLWGYYALDIWGQGTLVTVSS VL: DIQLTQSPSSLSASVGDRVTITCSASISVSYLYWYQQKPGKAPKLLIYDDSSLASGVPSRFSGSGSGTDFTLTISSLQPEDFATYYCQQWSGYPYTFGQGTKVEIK
2. anti-IL-6 antibody, heavy chain I51T, G66D / light chain M32L, M50D, N52S, M88Q (antibody, human IgG1, V domains shown, Human IgG1) VH: EVQLVESGGGLVQPGGSLRLSCAASGFTFSPFAMSWVRQAPGKGLEWVAKTSPGGSWTYYSDTVTDRFTFSLDTSKSTAYLQMNSLRAEDTAVYYCARQLWGYYALDIWGQGTLVTVSS VL: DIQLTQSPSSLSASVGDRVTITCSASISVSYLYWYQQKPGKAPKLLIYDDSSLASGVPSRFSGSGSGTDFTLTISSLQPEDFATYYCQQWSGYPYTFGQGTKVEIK

["1.37e+06 M⁻¹ s⁻¹", "2.05e+06 M⁻¹ s⁻¹"]

Required: kon, one value per binder below.
1. anti-IL-6 antibody, heavy chain T65P, G66D / light chain M32L, M50D, N52S, M88Q (antibody, human IgG1, V domains shown, Human IgG1) VH: EVQLVESGGGLVQPGGSLRLSCAASGFTFSPFAMSWVRQAPGKGLEWVAKISPGGSWTYYSDTVPDRFTFSLDTSKSTAYLQMNSLRAEDTAVYYCARQLWGYYALDIWGQGTLVTVSS VL: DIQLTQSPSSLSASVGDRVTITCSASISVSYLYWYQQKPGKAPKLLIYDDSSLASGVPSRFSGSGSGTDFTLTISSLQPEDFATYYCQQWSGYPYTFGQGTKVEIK
2. anti-IL-6 antibody, heavy chain T65F, G66D / light chain M32L, M50D, N52S, M88Q (antibody, human IgG1, V domains shown, Human IgG1) VH: EVQLVESGGGLVQPGGSLRLSCAASGFTFSPFAMSWVRQAPGKGLEWVAKISPGGSWTYYSDTVFDRFTFSLDTSKSTAYLQMNSLRAEDTAVYYCARQLWGYYALDIWGQGTLVTVSS VL: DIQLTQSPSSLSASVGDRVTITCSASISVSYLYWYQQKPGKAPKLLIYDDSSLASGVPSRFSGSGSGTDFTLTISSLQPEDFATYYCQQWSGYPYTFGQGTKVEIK
3. anti-IL-6 antibody, heavy chain G66D / light chain M32L, M50D, N52S, M88Q (antibody, human IgG1, V domains shown, Human IgG1) VH: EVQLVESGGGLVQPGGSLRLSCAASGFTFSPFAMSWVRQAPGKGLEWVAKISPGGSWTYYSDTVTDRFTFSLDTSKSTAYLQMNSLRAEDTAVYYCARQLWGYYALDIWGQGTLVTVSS VL: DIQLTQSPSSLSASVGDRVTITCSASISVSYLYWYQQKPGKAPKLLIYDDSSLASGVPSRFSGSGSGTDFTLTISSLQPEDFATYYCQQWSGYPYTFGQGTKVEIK

1: 1.79e+06 M⁻¹ s⁻¹; 2: 1.34e+06 M⁻¹ s⁻¹; 3: 1.63e+06 M⁻¹ s⁻¹

# batch size: 3; output kon per entry
1. anti-IL-6 antibody, heavy chain T65S, G66D / light chain M32L, M50D, N52S, M88Q (antibody, human IgG1, V domains shown, Human IgG1) VH: EVQLVESGGGLVQPGGSLRLSCAASGFTFSPFAMSWVRQAPGKGLEWVAKISPGGSWTYYSDTVSDRFTFSLDTSKSTAYLQMNSLRAEDTAVYYCARQLWGYYALDIWGQGTLVTVSS VL: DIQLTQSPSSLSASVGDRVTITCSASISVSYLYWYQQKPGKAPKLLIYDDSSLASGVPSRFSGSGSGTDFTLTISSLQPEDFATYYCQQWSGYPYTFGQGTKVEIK
2. anti-IL-6 antibody, heavy chain I51R, G66D / light chain M32L, M50D, N52S, M88Q (antibody, human IgG1, V domains shown, Human IgG1) VH: EVQLVESGGGLVQPGGSLRLSCAASGFTFSPFAMSWVRQAPGKGLEWVAKRSPGGSWTYYSDTVTDRFTFSLDTSKSTAYLQMNSLRAEDTAVYYCARQLWGYYALDIWGQGTLVTVSS VL: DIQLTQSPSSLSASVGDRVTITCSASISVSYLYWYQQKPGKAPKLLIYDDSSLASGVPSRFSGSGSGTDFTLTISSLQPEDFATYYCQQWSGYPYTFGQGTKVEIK
3. anti-IL-6 antibody, heavy chain S35G, G66D / light chain M32L, M50D, N52S, M88Q (antibody, human IgG1, V domains shown, Human IgG1) VH: EVQLVESGGGLVQPGGSLRLSCAASGFTFSPFAMGWVRQAPGKGLEWVAKISPGGSWTYYSDTVTDRFTFSLDTSKSTAYLQMNSLRAEDTAVYYCARQLWGYYALDIWGQGTLVTVSS VL: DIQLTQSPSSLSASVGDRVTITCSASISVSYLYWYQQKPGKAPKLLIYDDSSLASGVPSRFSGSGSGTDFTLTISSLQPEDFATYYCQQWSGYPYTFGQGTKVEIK

1: 1.42e+06 M⁻¹ s⁻¹; 2: 1.63e+06 M⁻¹ s⁻¹; 3: 1.28e+06 M⁻¹ s⁻¹
